Source listed as ChEMBL document CHEMBL4316588.

# System: Streptococcus pyogenes
# ASSAY TEXT: Antibacterial activity against Streptococcus pyogenes after 18 to 20 hrs by CLSI-protocol based broth microdilution method
# Format: functional
# CONDITION: Streptococcus pyogenes; read-out: MIC
MEASURED METRIC: MIC

Solved entries:
{"COMPOUND": "C[C@@H]1CN2c3c(cc4c(N5C[C@H](CO)SC5=O)noc4c3F)CC3(C(=O)NC(=O)NC3=O)[C@H]2[C@H](C)O1", "MEASUREMENT TARGET": "Streptococcus pyogenes", "MEASURED METRIC": "MIC", "ENDPOINT VALUE": "0.125 to 0.5 µg/mL"}
{"COMPOUND": "C[C@@H]1CN2c3c(cc4c(N5CCOC5=S)noc4c3F)CC3(C(=O)NC(=O)NC3=O)[C@H]2[C@H](C)O1 (racemic)", "MEASUREMENT TARGET": "Streptococcus pyogenes", "MEASURED METRIC": "MIC", "ENDPOINT VALUE": "2 µg/mL"}
{"COMPOUND": "CC(=O)NC[C@H]1CN(c2noc3c(F)c4c(cc23)CC2(C(=O)NC(=O)NC2=O)[C@H]2[C@H](C)O[C@H](C)CN42)C(=O)S1", "MEASUREMENT TARGET": "Streptococcus pyogenes", "MEASURED METRIC": "MIC", "ENDPOINT VALUE": "16 to 32 µg/mL"}

Report MIC for `C[C@@H]1CN2c3c(cc4c(N5CC6(CCCC6)OC5=O)noc4c3F)CC3(C(=O)NC(=O)NC3=O)[C@H]2[C@H](C)O1` tested on Streptococcus pyogenes.
0.25 to 0.5 µg/mL

Record lookup: for Streptococcus pyogenes, what MIC belongs to `C[C@@H]1CN2c3c(cc4c(N5C[C@H](c6ccccc6)SC5=O)noc4c3F)CC3(C(=O)NC(=O)NC3=O)[C@H]2[C@H](C)O1` ?
4 µg/mL

API: value(readout= MIC, system= Streptococcus pyogenes, query= `C[C@@H]1CN2c3c(cc4c(N5CCSC5=O)noc4c3F)CC3(C(=O)NC(=O)NC3=O)[C@H]2[C@H](C)O1` )
< 0.03 µg/mL

Param readout = MIC; param system = Streptococcus pyogenes; param query = `C[C@@H]1CN2c3c(cc4c(N5C(=O)SC[C@H]5C)noc4c3F)CC3(C(=O)NC(=O)NC3=O)[C@H]2[C@H](C)O1` ; response: value
0.125 to 0.25 µg/mL

// map `C[C@@H]1CN2c3c(cc4c(N5C(=O)SC[C@@H]5Cc5ccccc5)noc4c3F)CC3(C(=O)NC(=O)NC3=O)[C@H]2[C@H](C)O1` to recorded MIC (system: Streptococcus pyogenes)
4 to 8 µg/mL

Which MIC is reported with Streptococcus pyogenes for this entry: `CC[C@H]1CSC(=O)N1c1noc2c(F)c3c(cc12)CC1(C(=O)NC(=O)NC1=O)[C@H]1[C@H](C)O[C@H](C)CN31` ?
0.5 to 1 µg/mL

Tell me reported MIC for `C[C@H]1COc2c(N3CCN(C)CC3)c(F)cc3c(=O)c(C(=O)O)cn1c23.C[C@H]1COc2c(N3CCN(C)CC3)c(F)cc3c(=O)c(C(=O)O)cn1c23.O` , tested with Streptococcus pyogenes.
0.5 to 1 µg/mL

Hello, I am looking for reported MIC with Streptococcus pyogenes for `C[C@@H]1CN2c3c(cc4c(N5C[C@H](C)SC5=O)noc4c3F)CC3(C(=O)NC(=O)NC3=O)[C@H]2[C@H](C)O1` . Could you help?
< 0.03 µg/mL
